// provenance: patent US20260042834A1

study-system: T1, corticotropin-releasing hormone (CRH) peptide (human and mouse (same sequence), not fully specified)
T1 peptide: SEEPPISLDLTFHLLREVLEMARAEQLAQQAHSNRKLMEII
assay-notes: cell-based or functional assay
measurement-label: hCRHR1 Luciferase Reporter Assay IC50 (nM)
Output spec: scalar in nM, unitless text.

Solved entries:
Query: hCRHR1 Luciferase Reporter Assay IC50; subject: PR302341-7 (antibody, human IgG1, kappa, V domains shown) VH: QVQLVQSGAEVKKPGASVKVSCKASGYTFTDYFMKWVRQAPGQGLEWMGVINPNNGDIFYNQKFKGRVTMTVDKSTSTAYMELSSLRSEDTAVYYCARGTDRALFAYWGQGTLVTVSS VL: DVVMTQSPLSLPVTLGQPASISCRSGQSIVHSDGNTYLEWFQQRPGQSPRRLIYKVSNRFSGVPDRFSGSGSGTDFTLKISRVEAEDVGVYYCFQGSHIPWTFGGGTKVEIKR
Reply: 0.23

Query: hCRHR1 Luciferase Reporter Assay IC50; subject: PR302341-21 (antibody, human IgG1, kappa, V domains shown) VH: QVQLVQSGAEVKKPGASVKVSCKASGYTFTDYFMKWVRQAPGQRLEWMGVINPNNGDIFYNQKFKGRVTITVDKSASTAYMELSSLRSEDTAVYYCARGTDRALFAYWGQGTLVTVSS VL: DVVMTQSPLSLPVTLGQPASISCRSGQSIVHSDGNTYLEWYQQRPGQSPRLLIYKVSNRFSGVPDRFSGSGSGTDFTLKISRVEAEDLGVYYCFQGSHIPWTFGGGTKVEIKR
Reply: 0.177

Query: hCRHR1 Luciferase Reporter Assay IC50; subject: PR302341-20 (antibody, human IgG1, kappa, V domains shown) VH: QVQLVQSGAEVKKPGASVKVSCKASGYTFTDYFMKWVRQAPGQRLEWMGVINPNNGDIFYNQKFKGRVTITRDTSASTAYMELSSLRSEDTAVYYCARGTDRALFAYWGQGTLVTVSS VL: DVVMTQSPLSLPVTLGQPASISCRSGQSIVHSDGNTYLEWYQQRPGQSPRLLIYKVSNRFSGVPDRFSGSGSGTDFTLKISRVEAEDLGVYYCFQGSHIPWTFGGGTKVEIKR
Reply: 0.162

Query: hCRHR1 Luciferase Reporter Assay IC50; subject: PR302341-27 (antibody, human IgG1, kappa, V domains shown) VH: QVQLVQSGAEVKKPGASVKVSCKASGYTFTDYFMKWVRQAPGQGLEWMGVINPNNGDIFYNQKFKGRVTMTVDKSISTAYMELSRLRSDDTAVYYCARGTDRALFAYWGQGTLVTVSS VL: DVVMTQTPLSLSVTPGQPASISCRSGQSIVHSDGNTYLEWYLQKPGQSPQLLIYKVSNRFSGVPDRFSGSGSGTDFTLKISRVEAEDLGVYYCFQGSHIPWTFGGGTKVEIKR
Reply: 0.518

More entries:
Query: hCRHR1 Luciferase Reporter Assay IC50; subject: PR004290 (antibody, human IgG1, kappa, V domains shown, Series 1; human IgG1 wildtype Fc; also called Hybridoma Clone 28b3) VH: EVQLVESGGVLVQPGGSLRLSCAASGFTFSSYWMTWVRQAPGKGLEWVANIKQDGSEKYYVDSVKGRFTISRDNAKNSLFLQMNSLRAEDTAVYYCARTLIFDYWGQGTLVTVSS VL: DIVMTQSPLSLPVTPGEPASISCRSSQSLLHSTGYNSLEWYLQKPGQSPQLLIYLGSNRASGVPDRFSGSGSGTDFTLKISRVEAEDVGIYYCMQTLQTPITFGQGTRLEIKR
Reply: 1.83
